System: SARS-CoV-2-specific CD8+ T cells (CD69+CD137+) in PBMC
Format: cell-based, human
MEASUREMENT_TYPE: Frequency of positive response
Keep the answer to the number alone.

Recorded results for 5 sequences are shown here.
{"columns": ["SEQUENCE_CONTENT", "MEASURED_TARGET", "Frequency of positive response"],
 "data": [
  ["EPVLKGVKL", "SARS-CoV-2-specific CD8+ T cells (CD69+CD137+) in PBMC", 20],
  ["AAISDYDYYR", "SARS-CoV-2-specific CD8+ T cells (CD69+CD137+) in PBMC", 100],
  ["SEPVLKGVKL", "SARS-CoV-2-specific CD8+ T cells (CD69+CD137+) in PBMC", 40],
  ["YQDVNCTEV", "SARS-CoV-2-specific CD8+ T cells (CD69+CD137+) in PBMC", 50],
  ["KTFPPTEPKKDKKK", "SARS-CoV-2-specific CD8+ T cells (CD69+CD137+) in PBMC", 50]
]}

Could you tell me which Frequency of positive response is on file for YKTFPPTEPK ?
50

Could you tell me which Frequency of positive response is on file for RLQSLQTY ?
33

Could you tell me which Frequency of positive response is on file for AISDYDYYR ?
100

Could you tell me which Frequency of positive response is on file for HTTDPSFLGR ?
50

---

Below, each entry is listed alongside its reported IL13.
Tested on: human T cells
PROCEDURE_DETAILS: T cell cytokine SFC response to cross-reactive CD4 epitopes (Tables 6-8)
Format: cell-based
TEST_CONDITIONS: cross-reactive CD4 non-spike epitopes; IL13 spot forming cells

Recorded results for 3 substances are shown here.
{"columns": ["SUBSTANCE", "IL13"],
 "data": [
  ["245 (DDQIGYYRRATRRIR) [compound 245]", 120],
  ["247 (LLLLDRLNQLESKMS) [compound 247]", 0],
  ["806 (SEETGTLIVNSVLLF) [compound 806]", 0]
]}

Which IL13 is reported with human T cells for this entry: 248 (PSGTWLTYTGAIKLD) [compound 248] ?
0

Which IL13 is reported with human T cells for this entry: 848 (VKHVYQLRARSVSPK) [compound 848] ?
0

Which IL13 is reported with human T cells for this entry: 849 (LYSPIFLIVAAIVFI) [compound 849] ?
0

---

System: SARS-CoV-2-specific CD4+ T cells (OX40+CD137+) in PBMC
Type: cell-based, human
TEST_CONDITIONS: CD4+ T cell epitopes identified by AIM assay; percent of tested donors responding
Below, each entry is listed alongside its reported Frequency of response (%).

{"columns": ["SEQUENCE_CONTENT", "MEASURED_TARGET", "OBS_VALUE"],
 "data": [
  ["NFSQILPDPSKPSKR", "SARS-CoV-2-specific CD4+ T cells (OX40+CD137+) in PBMC", "33%"],
  ["KVTFFPDLNGDVVAI [SEQ ID NO 257]", "SARS-CoV-2-specific CD4+ T cells (OX40+CD137+) in PBMC", "15%"],
  ["IGINITRFQTLLALH", "SARS-CoV-2-specific CD4+ T cells (OX40+CD137+) in PBMC", "9%"],
  ["FLGIITTVAAFHQEC [SEQ ID NO 254]", "SARS-CoV-2-specific CD4+ T cells (OX40+CD137+) in PBMC", "9%"],
  ["KLLKSIAATRGATVV [SEQ ID NO 258]", "SARS-CoV-2-specific CD4+ T cells (OX40+CD137+) in PBMC", "6%"]
]}

Could you tell me which Frequency of response (%) is on file for QSINFVRIIMRLWLC [SEQ ID NO 252] ?
21%

Could you tell me which Frequency of response (%) is on file for LVYFLQSINFVRIIM [SEQ ID NO 251] ?
7%

Could you tell me which Frequency of response (%) is on file for KKRWQLALSKGVHFV [SEQ ID NO 250] ?
18%

Could you tell me which Frequency of response (%) is on file for GINASVVNIQKEIDR ?
8%

Could you tell me which Frequency of response (%) is on file for SNFRVQPTESIVRFP ?
9%

Could you tell me which Frequency of response (%) is on file for SFIEDLLFNKVTLAD ?
17%

Could you tell me which Frequency of response (%) is on file for VFAQVKQIYKTPPIK ?
8%

Could you tell me which Frequency of response (%) is on file for TRFQTLLALHRSYLT ?
18%

Measured values drawn from patent US20230293630A1 for this set.
